experiment: Kinetic solubility (aqueous); type: physicochemical; conditions: kinetic from dmso stock, read-out: Kinetic Solubility (Aq)
test.readout: solubility kinetic (µM)

>>> readout_value("O=C(Cc1cccc(Cl)c1)Nc1ccc(Cl)c(C(=O)N[C@@H](CNC(=O)N[C@@H]2CCc3ccccc32)C(=O)O)c1Cl [SU15210-0099-01]")
66.9

====

biological target: α2β1 (Homo sapiens, UniProt P05556+P17301); assay: α2β1 cell adhesion assay; assay type: cell-based
Sequence (P17301 30-1181): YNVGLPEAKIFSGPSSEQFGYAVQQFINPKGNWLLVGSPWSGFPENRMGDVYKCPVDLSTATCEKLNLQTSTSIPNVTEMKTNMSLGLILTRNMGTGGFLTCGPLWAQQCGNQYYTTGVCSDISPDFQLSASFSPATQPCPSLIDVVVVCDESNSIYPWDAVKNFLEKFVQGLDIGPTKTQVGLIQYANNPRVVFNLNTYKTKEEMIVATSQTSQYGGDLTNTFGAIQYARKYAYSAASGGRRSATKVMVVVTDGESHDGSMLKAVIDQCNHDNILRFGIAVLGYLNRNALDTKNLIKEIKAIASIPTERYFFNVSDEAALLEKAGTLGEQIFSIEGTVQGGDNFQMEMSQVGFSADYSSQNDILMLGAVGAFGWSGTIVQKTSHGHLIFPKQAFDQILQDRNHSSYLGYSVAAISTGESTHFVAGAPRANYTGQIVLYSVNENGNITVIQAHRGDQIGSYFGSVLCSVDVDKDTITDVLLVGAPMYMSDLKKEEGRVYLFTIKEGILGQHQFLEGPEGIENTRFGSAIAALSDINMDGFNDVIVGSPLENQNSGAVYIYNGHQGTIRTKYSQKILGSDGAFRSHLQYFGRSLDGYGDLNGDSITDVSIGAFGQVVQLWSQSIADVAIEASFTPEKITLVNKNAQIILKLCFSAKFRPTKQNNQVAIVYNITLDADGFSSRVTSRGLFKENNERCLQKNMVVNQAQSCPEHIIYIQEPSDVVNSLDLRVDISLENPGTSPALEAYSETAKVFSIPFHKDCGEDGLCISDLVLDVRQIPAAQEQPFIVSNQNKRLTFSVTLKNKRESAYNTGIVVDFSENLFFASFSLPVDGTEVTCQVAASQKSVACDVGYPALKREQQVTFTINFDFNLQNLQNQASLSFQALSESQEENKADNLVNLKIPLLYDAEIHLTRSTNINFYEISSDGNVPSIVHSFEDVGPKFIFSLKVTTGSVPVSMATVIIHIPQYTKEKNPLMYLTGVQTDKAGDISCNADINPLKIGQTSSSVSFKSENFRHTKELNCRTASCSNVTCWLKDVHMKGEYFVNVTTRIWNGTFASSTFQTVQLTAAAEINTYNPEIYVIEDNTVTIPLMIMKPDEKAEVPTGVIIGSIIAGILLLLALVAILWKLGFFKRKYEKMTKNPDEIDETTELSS
Sequence (P05556 21-798): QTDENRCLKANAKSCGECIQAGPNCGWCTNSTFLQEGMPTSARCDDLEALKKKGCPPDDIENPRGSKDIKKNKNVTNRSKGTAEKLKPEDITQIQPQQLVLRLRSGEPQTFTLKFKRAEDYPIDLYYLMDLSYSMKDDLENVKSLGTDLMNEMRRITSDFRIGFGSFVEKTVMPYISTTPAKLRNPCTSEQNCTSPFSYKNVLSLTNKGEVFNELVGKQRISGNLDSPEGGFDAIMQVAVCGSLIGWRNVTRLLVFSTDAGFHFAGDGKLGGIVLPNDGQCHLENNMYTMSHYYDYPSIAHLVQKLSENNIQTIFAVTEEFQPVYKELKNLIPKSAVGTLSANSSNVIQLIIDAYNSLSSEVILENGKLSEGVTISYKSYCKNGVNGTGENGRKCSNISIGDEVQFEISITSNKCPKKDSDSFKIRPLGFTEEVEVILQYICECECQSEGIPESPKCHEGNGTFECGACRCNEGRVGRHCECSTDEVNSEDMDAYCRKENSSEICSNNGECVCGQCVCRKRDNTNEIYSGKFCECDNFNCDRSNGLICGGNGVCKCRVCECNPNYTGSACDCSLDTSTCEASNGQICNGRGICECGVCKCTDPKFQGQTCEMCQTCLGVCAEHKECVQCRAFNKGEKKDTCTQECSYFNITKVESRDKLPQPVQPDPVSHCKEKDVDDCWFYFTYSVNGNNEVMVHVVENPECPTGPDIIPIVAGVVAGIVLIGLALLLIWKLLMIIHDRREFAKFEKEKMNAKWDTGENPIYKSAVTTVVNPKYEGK
pIC50: −log10 of the molar value.
test.readout: pIC50

>>> readout_value("COc1cccc(CNC(=O)c2cc(Cl)c(C(=O)N[C@@H](CNC(=O)N[C@@H]3CCc4ccccc43)C(=O)O)c(Cl)c2)c1")
"> 6.30"
>>> readout_value("CN(Cc1ccccc1)C(=O)NC[C@H](NC(=O)c1c(Cl)cc2c(c1Cl)CCN(CC#CC1CC1)C2=O)C(=O)O")
"< 5.30"
>>> readout_value("O=C(NC[C@H](NC(=O)c1c(Cl)cc2c(c1Cl)CCN(Cc1cccc(Cl)c1)C2=O)C(=O)O)N[C@@H]1CCc2ccccc21")
"< 5.30"
>>> readout_value("O=C(NC[C@H](NC(=O)c1c(Cl)cc(C(=O)NCc2cccc(Cl)c2)cc1Cl)C(=O)O)N[C@@H]1CCc2cc(Cl)ccc21")
"6.00 to 6.30"
>>> readout_value("CN(Cc1ccccc1)C(=O)NC[C@H](NC(=O)c1c(Cl)cc2c(c1Cl)CCN(Cc1cccc(Cl)c1)C2=O)C(=O)O")
"> 6.30"
>>> readout_value("O=C(NC[C@H](NC(=O)c1c(Cl)cc(C(=O)NCc2cccc(C(F)(F)F)c2)cc1Cl)C(=O)O)N[C@@H]1CCc2ccccc21")
"> 6.30"
